# measured.target: Ubiquitin-conjugating enzyme E2 N (Homo sapiens, UniProt P61088);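 note: Dose-response confirmation in a TR-FRET assay detecting UBC13-driven polyubiquitin chain formation, inhibition measured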
# Sequence (P61088 whole entry): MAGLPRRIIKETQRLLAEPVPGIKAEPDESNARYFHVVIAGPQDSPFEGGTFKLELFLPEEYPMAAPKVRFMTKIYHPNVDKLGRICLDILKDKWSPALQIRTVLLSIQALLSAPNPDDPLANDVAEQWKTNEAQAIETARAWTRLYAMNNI
# Format: functional
Activity calls are given as the source filed them.
# key: entry, value: IC50

> print(dat)
                                   compound              result
1  CN(C)CCCNc1cc(C(C)(C)C)nc2c(-c3ccccc3)cnn12  > 20 µM (inactive)

Item: Cc1cc(C)c2nc(NCCCNC(=S)NCCCN(C)C)c(C#N)cc2c1 | IC50: > 20 µM (inactive)

Item: COc1ccc(N(C(=O)c2snc(C(N)=O)c2N)C(C(=O)NC2CCCC2)c2ccco2)cc1OC (stereo not drawn) | IC50: 12 µM (active)

Item: O=C(CCCCCN1C(=O)c2ccccc2C1=O)NCCc1nc2ccccc2[nH]1 | IC50: > 20 µM (inactive)

---

# measured.target: Short transient receptor potential channel 4 (Mus musculus, UniProt Q9QUQ5)
# Sequence (Q9QUQ5 whole entry): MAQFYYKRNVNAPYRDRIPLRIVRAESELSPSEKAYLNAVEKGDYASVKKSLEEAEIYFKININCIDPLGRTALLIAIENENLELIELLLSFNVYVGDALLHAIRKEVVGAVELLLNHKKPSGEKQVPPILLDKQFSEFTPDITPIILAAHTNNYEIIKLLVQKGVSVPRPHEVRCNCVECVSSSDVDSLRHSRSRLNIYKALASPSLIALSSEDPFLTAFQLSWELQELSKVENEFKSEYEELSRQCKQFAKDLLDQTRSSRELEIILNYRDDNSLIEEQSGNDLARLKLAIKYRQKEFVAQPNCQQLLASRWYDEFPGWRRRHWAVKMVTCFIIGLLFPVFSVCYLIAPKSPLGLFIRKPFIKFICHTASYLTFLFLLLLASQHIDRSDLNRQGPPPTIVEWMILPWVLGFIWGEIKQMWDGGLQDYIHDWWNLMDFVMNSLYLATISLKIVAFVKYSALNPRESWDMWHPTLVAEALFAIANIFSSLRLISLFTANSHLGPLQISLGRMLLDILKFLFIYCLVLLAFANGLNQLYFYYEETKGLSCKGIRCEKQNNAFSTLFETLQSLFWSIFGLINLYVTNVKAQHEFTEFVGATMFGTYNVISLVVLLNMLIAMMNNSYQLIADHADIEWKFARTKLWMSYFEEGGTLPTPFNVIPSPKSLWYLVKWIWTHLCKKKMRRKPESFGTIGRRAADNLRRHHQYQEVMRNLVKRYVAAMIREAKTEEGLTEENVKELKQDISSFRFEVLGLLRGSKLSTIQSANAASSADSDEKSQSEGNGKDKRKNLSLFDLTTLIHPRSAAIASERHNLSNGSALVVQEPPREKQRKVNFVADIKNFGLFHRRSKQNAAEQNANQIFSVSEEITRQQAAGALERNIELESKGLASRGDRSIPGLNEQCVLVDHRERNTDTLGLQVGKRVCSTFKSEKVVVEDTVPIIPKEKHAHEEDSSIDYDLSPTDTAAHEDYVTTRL
# assay.summary: block of DAMGO-driven TRPC4 calcium entry – cell-based, HEK293 TRPC4/mu-opioid, Fluo-4 calcium, dose response (AID 434942);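 note: potency of inhibitors blocking the TRPC4 calcium response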
# Type: functional
Active and inactive are the calls of the source.
recorded.endpoint: EC50

> print(dat)
                               input.smiles            result
1  CN1/C(=C\C(=O)C[n+]2ccc3ccccc3c2)C(C)(C)c2ccccc21  5.31 µM (active)
2  CN(C(=O)CSc1nc(-c2ccc(C(C)(C)C)cc2)c(C#N)c(=O)[nH]1)C1CCCCC1  9.44 µM (active)
3               O/N=C/c1ccccc1Oc1ccc(Cl)cc1  6.68 µM (active)
4  O=C(CSc1nc2nncc-2c(O)n1-c1ccccc1Br)NCc1ccccc1Cl  2.99 µM (active)
5               Cc1cccc(C)c1N1CCc2c[nH]nc21   7.5 µM (active)

Item: OCCCNc1c2ccccc2nc2ccccc12 | EC50: 6.68 µM (active)

Item: Clc1ccc(CN2C3=NCCN3c3ccccc32)cc1 | EC50: 1.5 µM (active)

Item: Cc1cc(-c2cn3ccccc3n2)c(C)n1-c1ccccc1 | EC50: 7.5 µM (active)

---

Record type: AC50 measurement. Applies to: Cytochrome P450 2D6 (Homo sapiens)

Entry C=CCNc1oc(/C=C/c2ccccc2)nc1C#N : AC50 on Cytochrome P450 2D6 (Homo sapiens) = 20 µM (inconclusive)

Entry CCOc1ccc2nc(SCc3ccccc3C#N)sc2c1 : AC50 on Cytochrome P450 2D6 (Homo sapiens) = 17.8 µM (inconclusive)

Entry Cn1c(CN2CCCCC2)nc2cc(NC(=O)c3ccc(Cl)cc3)ccc21 : AC50 on Cytochrome P450 2D6 (Homo sapiens) = 0.0316 µM (inconclusive)

Entry Cc1cc(C)c[n+](CC(=O)c2cc3ccccc3oc2=O)c1 : AC50 on Cytochrome P450 2D6 (Homo sapiens) = 11.2 µM (inconclusive)

Entry O=C(NC1CCCCCC1)c1cccs1 : AC50 on Cytochrome P450 2D6 (Homo sapiens) = 12.6 µM (inconclusive)

Entry O=C(N/N=C/c1c[nH]c2ccccc12)c1ccn(Cc2ccc(Cl)cc2Cl)n1 : AC50 on Cytochrome P450 2D6 (Homo sapiens) = 7.08 µM (inconclusive)

Entry Fc1ccc(NCc2ccccc2F)cc1Cl : AC50 on Cytochrome P450 2D6 (Homo sapiens) = 17.8 µM (inconclusive)

Entry Cc1oc(-c2ccccc2F)nc1CS(=O)(=O)CC(=O)NCCCN(C)C1CCCCC1 : AC50 on Cytochrome P450 2D6 (Homo sapiens) = 15.8 µM (inconclusive)

Entry CC(C)c1cc(CN(C)C)c(O)c(C(C)(C)C)c1 : AC50 on Cytochrome P450 2D6 (Homo sapiens) = 6.31 µM (inconclusive)

Entry Cc1c(N2C(=O)/C(=C3/C(=O)N(C)c4ccccc43)SC2=S)c(=O)n(-c2ccccc2)n1C : AC50 on Cytochrome P450 2D6 (Homo sapiens) = 7.94 µM (inconclusive)

Entry C=CCSc1nnc(-c2cc3c(C(F)(F)F)nn(C)c3s2)n1C : AC50 on Cytochrome P450 2D6 (Homo sapiens) = 17.8 µM (inconclusive)

Entry CN(C)c1ccc(-c2ccc3ncnc(N(C)Cc4ccco4)c3c2)cc1 : AC50 on Cytochrome P450 2D6 (Homo sapiens) = 25.1 µM (inconclusive)

Entry O=c1cnc2cnc(OCc3ccccc3)nc2n1Cc1ccc(F)cc1 : AC50 on Cytochrome P450 2D6 (Homo sapiens) = 39.8 µM (inconclusive)

Entry Cc1ccccc1Cn1cnc2c(cnn2C(C)(C)C)c1=O : AC50 on Cytochrome P450 2D6 (Homo sapiens) = 35.5 µM (inconclusive)

Entry CC(c1ccc(Cl)cc1)n1c(S)nnc1-c1ccc2ccccc2n1 (stereo not given) : AC50 on Cytochrome P450 2D6 (Homo sapiens) = 39.8 µM (inconclusive)

---

# measured.target: Adenosylmethionine-8-amino-7-oxononanoate aminotransferase (Mycobacterium tuberculosis)
# Sequence (P9WQ81 whole entry): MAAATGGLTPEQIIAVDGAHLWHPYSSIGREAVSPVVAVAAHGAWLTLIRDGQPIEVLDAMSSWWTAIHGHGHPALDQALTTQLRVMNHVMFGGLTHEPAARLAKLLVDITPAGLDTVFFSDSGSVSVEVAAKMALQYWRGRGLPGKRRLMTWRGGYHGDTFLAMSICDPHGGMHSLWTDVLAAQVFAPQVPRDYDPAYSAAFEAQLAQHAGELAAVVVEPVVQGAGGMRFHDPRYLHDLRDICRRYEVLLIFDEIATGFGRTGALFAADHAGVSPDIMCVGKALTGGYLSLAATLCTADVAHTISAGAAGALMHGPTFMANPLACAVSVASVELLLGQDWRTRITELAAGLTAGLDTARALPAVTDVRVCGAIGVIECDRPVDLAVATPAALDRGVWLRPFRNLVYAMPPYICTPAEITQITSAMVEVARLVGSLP
# assay.summary: Mycobacterium tuberculosis BioA enzyme inhibitor Measured in Biochemical System Using Plate Reader - 2163-02_Inhibitor_Dose_CherryPick_Activity.
# Type: functional, Mycobacterium tuberculosis UT205
The source made the active and inactive calls.
recorded.endpoint: AC50

> print(dat)
                               input.smiles            result
1  COc1ccc([N+](=O)[O-])cc1C(=O)NC1CCN(Cc2ccccc2)CC1   2.3 µM (active)
2  C[C@@H]1CN([C@@H](C)CO)C(=O)Cc2cc(NC(=O)Cn3cnnn3)ccc2O[C@H]1CN(C)Cc1ccc2c(c1)OCO2  10.5 µM (active)
3  COCCNC(=O)C[C@H]1CC[C@@H]2[C@H](COc3ccc(NC(=O)Nc4cccc(F)c4)cc3C(=O)N2C)O1  6.86 µM (active)

Entry C/C=C/c1ccc2c(c1)O[C@@H](CN(C)C(=O)Nc1ccc(F)cc1)[C@@H](C)CN([C@@H](C)CO)S2(=O)=O : AC50 on Adenosylmethionine-8-amino-7-oxononanoate aminotransferase (Mycobacterium tuberculosis) = 4.65 µM (active)

---

# measured.target: Paired box protein Pax-8 (Homo sapiens)
# Sequence (Q06710 whole entry): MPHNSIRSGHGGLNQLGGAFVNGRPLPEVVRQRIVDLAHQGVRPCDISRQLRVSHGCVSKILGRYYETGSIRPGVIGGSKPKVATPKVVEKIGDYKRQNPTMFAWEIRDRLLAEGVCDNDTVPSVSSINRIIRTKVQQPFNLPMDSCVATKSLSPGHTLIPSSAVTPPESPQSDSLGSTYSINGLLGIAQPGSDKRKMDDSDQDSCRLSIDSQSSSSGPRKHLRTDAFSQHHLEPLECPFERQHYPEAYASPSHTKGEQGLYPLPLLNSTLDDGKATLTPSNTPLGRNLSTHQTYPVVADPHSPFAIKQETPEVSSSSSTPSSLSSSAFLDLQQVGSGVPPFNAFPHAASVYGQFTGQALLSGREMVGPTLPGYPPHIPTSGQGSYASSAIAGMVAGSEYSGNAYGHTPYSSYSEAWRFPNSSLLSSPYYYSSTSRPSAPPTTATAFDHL
# assay.summary: PAX8 transcriptional activity inhibition in RMG-I – RMG-I cells, luciferase, cherry-pick, dose response (AID 687027);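 note: luciferase reporter driven by Pax8 target thyroperoxidase promoter measured by SteadyGlo luminescence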
# Format: functional, cell-based
The source made the active and inactive calls.
recorded.endpoint: AC50

> print(dat)
                                   compound            result
1             O=C(O)c1cccc(N/N=C/c2cccs2)c1  6.14 µM (active)
2  O=C(C[C@H]1CC[C@H]2[C@@H](COC[C@@H](O)CN2Cc2ccc(Oc3ccccc3)cc2)O1)N1CCCCC1    15 µM (active)
3  O=C(Nc1cccc(NC(=O)c2cccs2)c1)c1ccc([N+](=O)[O-])o1  4.04 µM (active)
4  O=C(Nc1ccccc1)Nc1cc(OCC(F)(F)F)cc(OCC(F)(F)F)c1  6.93 µM (active)
5  COc1ccc(NC(=O)Nc2ccc3c(c2)C(=O)N([C@@H](C)CO)C[C@@H](C)[C@@H](CN(C)Cc2ccc(C(F)(F)F)cc2)OCCCC[C@@H](C)O3)cc1  8.18 µM (active)
6  COc1ccc(/C=C2\CN(Cc3ccccc3)C/C(=C\c3ccc(OC)c(O)c3)C2=O)cc1O  4.63 µM (active)
7  O=C(Nc1ccc(OCC(F)(F)C(F)F)c(C(F)(F)F)c1)c1ccccc1O  7.06 µM (active)
8  Cc1cc(NC(=O)CCCS(=O)(=O)c2nc(-c3cccs3)cc(C(F)(F)F)n2)no1  6.85 µM (active)

For the next question, use this compound.
Item: COc1ccc(NC(=O)C(Sc2nnc(-c3ccncc3)n2-c2ccccc2C)c2ccccc2)cc1Cl (centres undefined) | AC50: 15.5 µM (active)

---

# Tested on: HEK293;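 note: HEK-293-T cells carrying an NF-kB luciferase reporter; cells exposed to compound overnight before the viability read; potency for loss of cell viability meaning cytotoxicity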
# assay.summary: cells
# Format: functional, cell-based
# test.parameters: Homo sapiens
Activity calls are given as the source filed them.
Your reply should match one of these outcome classes. active, inactive

Field: example entries. Status: answers known.
> print(dat)
                               input.smiles  class.label
1  COc1ccccc1NC(=O)CSc1nc2sc(C)c(C)c2c(=O)n1C     inactive
2  O=S(=O)(Nc1nc2ccccc2nc1Nc1ccc2c(c1)OCO2)c1ccc(F)cc1     inactive
3          Cc1cc(OCC(=O)Nc2ccncc2)cc(C)c1Br       active

Now for another entry.
Could you kindly confirm the outcome this assay logged for Oc1nc(/C=C/c2ccccc2C(F)(F)F)cc(C(F)(F)F)n1 ?
inactive

---

# measured.target: Nonstructural protein 1 (Influenza A virus)
# Sequence (Q194T2 whole entry): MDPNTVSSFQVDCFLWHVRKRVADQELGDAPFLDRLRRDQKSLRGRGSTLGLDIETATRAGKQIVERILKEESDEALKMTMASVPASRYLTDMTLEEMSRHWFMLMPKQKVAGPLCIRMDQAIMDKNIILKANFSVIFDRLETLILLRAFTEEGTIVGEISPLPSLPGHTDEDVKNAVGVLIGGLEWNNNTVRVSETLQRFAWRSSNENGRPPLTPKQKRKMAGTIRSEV
# Format: functional, Influenza A virus (A/California/07/2009(H1N1))
Active and inactive are the calls of the source.
# key: entry, value: IC50

> print(dat)
                                   compound             result
1  Cc1cccn2c(=O)c(C=C(C#N)C#N)c(N3CCN(c4ccccc4)CC3)nc12  > 100 µM (active)
2  CC1N(C)c2cc(NC(=O)c3ccco3)ccc2C1(C)C (centres undefined)   69.6 µM (active)
3           CC(=NNC(S)=Nc1ccccc1Cl)c1ccccn1   21.7 µM (active)

For the next question, use this compound.
Item: CCn1nc([N+](=O)[O-])c(C(C#N)c2nc3cc(C(F)(F)F)ccc3s2)c(Cl)c1=O (centres undefined) | IC50: 19.9 µM (active)
